# Measurement target: T1, hIL-4Rα on cells (human, UniProt P24394 26-825)
# T1 sequence: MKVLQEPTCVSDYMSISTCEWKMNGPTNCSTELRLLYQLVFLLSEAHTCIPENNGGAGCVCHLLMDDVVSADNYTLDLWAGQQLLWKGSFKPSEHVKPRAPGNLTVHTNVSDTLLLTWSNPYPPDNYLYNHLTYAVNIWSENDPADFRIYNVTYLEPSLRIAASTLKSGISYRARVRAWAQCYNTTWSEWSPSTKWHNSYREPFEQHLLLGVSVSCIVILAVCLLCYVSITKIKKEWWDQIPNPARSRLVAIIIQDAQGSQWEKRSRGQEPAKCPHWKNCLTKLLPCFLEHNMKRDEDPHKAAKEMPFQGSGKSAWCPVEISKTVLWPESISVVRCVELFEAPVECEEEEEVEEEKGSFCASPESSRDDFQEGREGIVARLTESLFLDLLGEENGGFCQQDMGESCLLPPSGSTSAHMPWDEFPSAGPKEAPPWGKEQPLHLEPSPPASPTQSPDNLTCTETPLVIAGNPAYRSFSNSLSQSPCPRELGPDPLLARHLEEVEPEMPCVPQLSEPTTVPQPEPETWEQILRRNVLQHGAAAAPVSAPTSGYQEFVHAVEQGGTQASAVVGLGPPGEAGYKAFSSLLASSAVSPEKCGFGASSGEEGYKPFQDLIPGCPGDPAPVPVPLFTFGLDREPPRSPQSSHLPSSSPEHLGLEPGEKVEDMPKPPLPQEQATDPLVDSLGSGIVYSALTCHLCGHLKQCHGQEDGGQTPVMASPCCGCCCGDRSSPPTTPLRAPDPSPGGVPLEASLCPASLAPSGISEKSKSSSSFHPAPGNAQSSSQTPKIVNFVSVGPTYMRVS
# Experiment description: FACS on HEK293 cells, competitor biotin-hIL-4;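 further: HEK293 cells stably co-expressing hIL-13Rα and hIL-4Rα, stained for 1 h at 4 °C, read-out as mean fluorescence intensity by flow cytometry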
Measured quantity: Relative Blockade of IL-4 Binding IC50

[
  {
    "Binder": "Construct 19 (mAb427) (antibody, IgG4, V domains shown, VH/VL only) VH: EVQLVESGGGLEQPGGSLRLSCAGSGFTFRTYAMTWVRQAPGKGLEWVSSISGSGDNTYYADSVKGRFTISRDNSKNTLYLQMNSLRAEDTAVYYCAKDRVSITIRPRYYGLDVWGQGTTVTVSS VL: DIVMTQSPLSLPVTPGEPASISCTSSQSLLYSIGYNYVDWYLQKSGQSPQLLIYLGNKRASGVPDRFSGSGSGTDFTLKISRVEAEDVGFYYCMQALGSPYTFGQGTKLEIK",
    "Recorded value": "0.867 relative to dupilumab"
  }
]

In the following, a different binder is considered.
Incoming: Which Relative Blockade of IL-4 Binding IC50 reading was recorded for the binder Construct 40 (mAb476) (antibody, IgG4, V domains shown, VH/VL only) VH: EVQLVESGGGLEQPGGSLRLSCAGSGFTFRDFAMTWVRQAPGKGLEWVSSVSGDGGNTYYADSVKGRFTISRDNSKNTLYLQMNSLRAEDTAVYYCAKDRLSKTIRPRYYGLDVWGQGTTVTVSS VL: DIVMTQSPLSLPVTPGEPASISCRSSQSVLYSIGYNYVDWYLQKSGQSPQLLIYLGNKRASGVPDRFSGSGSGTDFTLKISRVEAEDVGFYYCMQAYQSPYVFGQGTKLEIK ?
Outgoing: 1.16 relative to dupilumab
